system: Rhizomucor miehei; assay: Antimicrobial activity against Mucor miehei at 20 ug/9 mm disk by agar diffusion method; assay type: functional, organism-based
The source made the active and inactive calls. No cut-off for these calls is given here.
result-type: Activity

Please review the entries below; each comes with its answer.
Q: API: value(readout= Activity, system= Rhizomucor miehei, query= C/C=C/C=C/C(=O)c1c(C)c(O)c(O)c(C)c1O [SOHIRNONE B] )
A: inactive

Q: API: value(readout= Activity, system= Rhizomucor miehei, query= C/C=C/C=C/C(O)=C1\C(=O)C(C)=C(O)[C@@](C)(O)C1=O )
A: inactive

Q: API: value(readout= Activity, system= Rhizomucor miehei, query= C/C=C/C=C/C(O)=C1/C(=O)[C@]2(C)C(=O)[C@@](C)(O)[C@H]1[C@H]1[C@]2(C(=O)CC/C=C/C)C(=O)C(C)=C(O)[C@@]1(C)O [BISVERTINOQUINOL] )
A: inactive

Q: API: value(readout= Activity, system= Rhizomucor miehei, query= C/C=C/CCC(=O)c1c(C)c(O)c(O)c(C)c1O )
A: inactive

Q: API: value(readout= Activity, system= Rhizomucor miehei, query= C/C=C/CCC(=O)c1cc(C)c(O)cc1O [SOHIRNONE A] )
A: inactive

Q: API: value(readout= Activity, system= Rhizomucor miehei, query= C/C=C/C=C/C(O)=C1/C(=O)[C@](C)(O)C(=O)C(C)=C1O )
A: inactive

---
Q: API: value(readout= Activity, system= Rhizomucor miehei, query= C/C=C/C=C/C(O)=C1\C(=O)[C@]2(C)C(=O)[C@@](C)(O)[C@H]1[C@H]1OC(=O)C[C@]12CO [REZISHANONE A] )
A: inactive

Q: API: value(readout= Activity, system= Rhizomucor miehei, query= C/C=C/CCC(=O)c1cc(C)c(O)c(C)c1O )
A: inactive

----------
tested on: Chlorella vulgaris; assay: Antimicrobial activity against Chlorella vulgaris at 20 ug/9 mm disk by agar diffusion method; type: functional, organism-based
The source made the active and inactive calls. The rule behind the calls is not given here.
result-type: Activity

Q: Quick one: Activity of C/C=C/CCC(=O)c1cc(C)c(O)c(C)c1O ?
A: inactive

Q: Quick one: Activity of C/C=C/C=C/C(O)=C1\C(=O)C(C)=C(O)[C@@](C)(O)C1=O ?
A: inactive

Q: Quick one: Activity of C/C=C/CCC(=O)c1cc(C)c(O)cc1O [SOHIRNONE A] ?
A: inactive
